# TARGET_OR_SYSTEM: human KDR protein in HEK-293 cells (Homo sapiens (Human), UniProt P35968)
# Sequence (P35968 20-1356): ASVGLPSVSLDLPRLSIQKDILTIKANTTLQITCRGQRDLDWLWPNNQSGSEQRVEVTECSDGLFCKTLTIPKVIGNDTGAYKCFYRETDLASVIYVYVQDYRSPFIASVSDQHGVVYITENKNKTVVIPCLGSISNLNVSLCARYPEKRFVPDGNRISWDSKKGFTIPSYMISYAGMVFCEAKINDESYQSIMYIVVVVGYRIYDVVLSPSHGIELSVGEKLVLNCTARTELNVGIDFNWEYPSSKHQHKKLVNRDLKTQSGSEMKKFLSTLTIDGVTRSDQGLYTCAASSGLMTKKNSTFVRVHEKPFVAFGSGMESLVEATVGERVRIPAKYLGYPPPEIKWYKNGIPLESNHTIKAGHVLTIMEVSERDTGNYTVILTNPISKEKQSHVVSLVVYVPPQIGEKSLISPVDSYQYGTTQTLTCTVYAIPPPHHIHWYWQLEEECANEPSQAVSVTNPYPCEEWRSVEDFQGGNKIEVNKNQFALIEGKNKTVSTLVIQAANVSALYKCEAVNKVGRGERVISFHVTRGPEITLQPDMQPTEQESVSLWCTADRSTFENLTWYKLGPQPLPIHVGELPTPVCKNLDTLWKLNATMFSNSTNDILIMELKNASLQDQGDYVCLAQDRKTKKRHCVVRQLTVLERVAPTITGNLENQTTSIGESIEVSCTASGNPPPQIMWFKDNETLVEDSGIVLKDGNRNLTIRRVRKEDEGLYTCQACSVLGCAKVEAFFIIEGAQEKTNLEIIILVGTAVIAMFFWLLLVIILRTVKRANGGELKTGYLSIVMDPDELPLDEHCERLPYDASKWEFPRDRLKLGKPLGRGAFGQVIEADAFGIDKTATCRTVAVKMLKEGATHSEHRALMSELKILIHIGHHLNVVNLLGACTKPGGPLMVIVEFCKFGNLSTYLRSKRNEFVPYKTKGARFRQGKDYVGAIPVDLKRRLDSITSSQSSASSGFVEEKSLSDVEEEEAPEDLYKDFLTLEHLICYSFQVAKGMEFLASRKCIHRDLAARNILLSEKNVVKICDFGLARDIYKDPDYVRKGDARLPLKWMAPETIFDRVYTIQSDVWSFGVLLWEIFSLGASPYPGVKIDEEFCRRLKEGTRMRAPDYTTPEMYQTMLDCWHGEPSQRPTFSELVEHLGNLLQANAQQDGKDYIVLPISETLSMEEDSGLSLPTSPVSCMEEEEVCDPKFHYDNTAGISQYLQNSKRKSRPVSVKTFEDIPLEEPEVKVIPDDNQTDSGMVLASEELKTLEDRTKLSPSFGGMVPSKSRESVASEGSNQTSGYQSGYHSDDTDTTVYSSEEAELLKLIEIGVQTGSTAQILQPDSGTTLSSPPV
# TEST: KDR Cell Assay (phospho-KDR in HEK-293 cells expressing inducible KDR)
# Format: cell-based
# CONDITION_LABEL: pKDR Cell HEK 10% FBS IC50, HEK-293 cells expressing inducible KDR, VEGF stimulated, 10% FBS
Structures can show the parent of a compound that is named as a salt.
Reported pIC50 is given for each of the following compounds.
Answer as the number alone; pIC50 is minus log10 of concentration in mol/L.

Cn1cc(-c2cc(-c3ccc(N4CCN(C(=O)CC5CCOCC5)CC4)nc3)c3c(C#N)cnn3c2)cn1 = 6.00
COC1CCN(c2ccc(-c3cc(-c4cnn(C)c4)cn4ncc(C#N)c34)cn2)CC1 = 6.18
Cn1cc(-c2cc(-c3ccc(N4CC5CCC(C4)N5)nc3)c3c(C#N)cnn3c2)cn1 [Example 174, dihydrochloride] = 5.91

Below: the item to evaluate.
Data request, read-out pIC50, for CC(C)C[C@H](O)C(=O)N1CCN(c2ccc(-c3cc(-c4cnn(C)c4)cn4ncc(C#N)c34)cn2)CC1
6.05

* * *

# TARGET_OR_SYSTEM: human KDR protein in HEK-293 cells (Homo sapiens (Human), UniProt P35968)
# TEST: KDR Cell Assay (phospho-KDR in HEK-293 cells expressing inducible KDR)
# Type: cell-based
# CONDITION_LABEL: pKDR Cell HEK 10% FBS IC50, HEK-293 cells expressing inducible KDR, VEGF stimulated
pIC50: −log10 of the molar value.
Give yes (1) when the value for pIC50 is at least 6. Give no (0) when it is less.

Say whether COc1ccccc1CN1CCN(c2ccc(-c3cc(-c4cnn(C)c4)cn4ncc(C#N)c34)cn2)CC1 shows pIC50 of 6 or more.
yes (1)

Say whether Cn1cc(-c2cc(-c3ccc(N4CCC5(CC4)CN(C(=O)C4CC4)C5)nc3)c3c(C#N)cnn3c2)cn1 shows pIC50 of 6 or more.
yes (1)

* * *

# TARGET_OR_SYSTEM: N-terminal GST tagged recombinant human RET cytoplasmic domain (aa 658-end), wild type RET kinase (Homo sapiens (Human), UniProt P07949)
# Sequence (P07949 658-1114): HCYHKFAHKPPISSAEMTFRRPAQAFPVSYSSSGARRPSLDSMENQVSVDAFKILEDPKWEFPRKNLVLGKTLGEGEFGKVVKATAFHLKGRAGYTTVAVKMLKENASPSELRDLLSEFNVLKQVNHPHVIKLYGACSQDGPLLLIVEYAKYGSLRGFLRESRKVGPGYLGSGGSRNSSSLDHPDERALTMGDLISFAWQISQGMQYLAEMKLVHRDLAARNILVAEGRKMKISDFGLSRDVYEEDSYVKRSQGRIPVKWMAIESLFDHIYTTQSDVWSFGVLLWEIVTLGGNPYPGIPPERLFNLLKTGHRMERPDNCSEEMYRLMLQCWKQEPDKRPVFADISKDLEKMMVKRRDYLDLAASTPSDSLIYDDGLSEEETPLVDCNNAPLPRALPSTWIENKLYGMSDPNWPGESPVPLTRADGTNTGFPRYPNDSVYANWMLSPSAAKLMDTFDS
# TEST: RET Enzyme Assay (HTRF KinEASE-TK), wild type RET
# Format: biochemical
# CONDITION_LABEL: wild type RET, 1 mM ATP
Reported IC50 is given for each of the following compounds.
Please append the unit to your numeric answer.

Cc1nn(C)c(C)c1-c1cc(-c2ccc(N3CCN(Cc4ccccc4)CC3)nc2)c2c(C#N)cnn2c1 [Example 613] = 122 nM

Data request, read-out IC50, for CC(C)NC(=O)C1CCN(c2ccc(-c3cc(-c4cnn(C)c4)cn4ncc(C#N)c34)cn2)CC1 [Example 246]
12 nM

Data request, read-out IC50, for CC(C)N(CCO)C(=O)C1CCN(c2ccc(-c3cc(-c4cnn(C)c4)cn4ncc(C#N)c34)cn2)CC1 [Example 561, 2,2,2-trifluoroacetate]
23.8 nM

* * *

# TARGET_OR_SYSTEM: human KDR protein in HEK-293 cells (Homo sapiens (Human))
# TEST: KDR Cell Assay (phospho-KDR in HEK-293 cells expressing inducible KDR)
# Assay type: cell-based
# CONDITION_LABEL: pKDR Cell HEK 10% FBS IC50, HEK-293 cells expressing inducible KDR, VEGF stimulated
METRIC_NAME: pIC50
Answer as the number alone; pIC50 is minus log10 of concentration in mol/L.

COCCN1CCN(c2ccc(-c3cc(-c4cnn(C)c4)cn4ncc(C#N)c34)cn2)CC1 [Example 396] = 5.83
Cn1cc(-c2cc(-c3ccc(N4CCN(Cc5ccccc5Cl)CC4)nc3)c3c(C#N)cnn3c2)cn1 [Example 454] = 6.16
Cn1cc(-c2cc(-c3ccc(N4CCN(Cc5ccccc5F)CC4)nc3)c3c(C#N)cnn3c2)cn1 [Example 427] = 6.03
CC(C)C1CCN(C(=O)N2CCN(c3ccc(-c4cc(-c5cnn(C)c5)cn5ncc(C#N)c45)cn3)CC2)C1 (stereo not drawn) [Example 390] = 6.02
Cn1cc(-c2cc(-c3ccc(N4CCN(CCOC5CC5)CC4)nc3)c3c(C#N)cnn3c2)cn1 [Example 407] = 6.08

Data request, read-out pIC50, for Cn1cc(-c2cc(-c3ccc(N4CC5(CCOCC5)C4)nc3)c3c(C#N)cnn3c2)cn1 [Example 527, 2,2,2-trifluoroacetate]
6.04

Data request, read-out pIC50, for Cn1cc(-c2cc(-c3ccc(N4CCN(Cc5ccc(F)cn5)CC4)nc3)c3c(C#N)cnn3c2)cn1 [Example 462]
6.09

Data request, read-out pIC50, for Cn1cc(-c2cc(-c3ccc(N4CC5CC(C4)N5Cc4ccccc4)nc3)c3c(C#N)cnn3c2)cn1 [Example 489]
7.71

* * *

# TARGET_OR_SYSTEM: N-terminal GST tagged recombinant human RET cytoplasmic domain (aa 658-end), wild type RET kinase (Homo sapiens (Human), UniProt P07949)
# TEST: RET Enzyme Assay (HTRF KinEASE-TK), wild type RET
# Assay type: biochemical
# CONDITION_LABEL: wild type RET, 1 mM ATP
METRIC_NAME: IC50 (nM)
Response body: numeric value in nM, unit text excluded.

Data request, read-out IC50, for Cn1cc(-c2cc(-c3ccc(N4CCN(C(=O)CC(C)(C)C)CC4)nc3)c3c(Cl)cnn3c2)cn1
31.1

Data request, read-out IC50, for CC(C)[C@@H](O)C(=O)N1CCN(c2ccc(-c3cc(-c4cnn(C)c4)cn4ncc(C#N)c34)cn2)CC1
7.6

Data request, read-out IC50, for CCC(=O)N1CCN(c2ccc(-c3cc(-c4cnn(C)c4)cn4ncc(C#N)c34)cn2)CC1
19.4

* * *

# TARGET_OR_SYSTEM: N-terminal GST tagged recombinant human RET cytoplasmic domain (aa 658-end), wild type RET kinase (Homo sapiens (Human))
# TEST: RET Enzyme Assay (HTRF KinEASE-TK), wild type RET
# Type: biochemical
# CONDITION_LABEL: wild type RET, 1 mM ATP
Reported pIC50 is given for each of the following compounds.
Answer as the number alone; pIC50 is minus log10 of concentration in mol/L.

Cn1cc(-c2cc(-c3ccc(N4CCC(C)(NC(=O)OC(C)(C)C)CC4)nc3)c3c(C#N)cnn3c2)cn1 = 7.97

Below: the item to evaluate.
Data request, read-out pIC50, for Cc1cnn2cc(-c3cnn(C)c3)cc(-c3ccc(N4CCN(C(=O)OC(C)(C)C)CC4)nc3)c12
6.46

* * *

# TARGET_OR_SYSTEM: human KDR protein in HEK-293 cells (Homo sapiens (Human))
# TEST: KDR Cell Assay (phospho-KDR in HEK-293 cells expressing inducible KDR)
# Type: cell-based
# CONDITION_LABEL: pKDR Cell HEK 10% FBS IC50, HEK-293 cells expressing inducible KDR, VEGF stimulated, 10% FBS
Structures can show the parent of a compound that is named as a salt.
METRIC_NAME: log10(IC50) (log10 of the value in µM)
Parameter value (number): base-10 log of IC50 in µM.

Cn1cc(-c2cc(-c3ccc(N4CCN(C(=O)N5CCOCC5)CC4)nc3)c3c(C#N)cnn3c2)cn1 [Example 119] = 0.36
Cn1cc(-c2cc(-c3ccc(C4CCNCC4)cc3)c3c(C#N)cnn3c2)cn1 [Example 301, dihydrochloride] = -0.80
CC(C)NC(=O)N1CCN(c2ccc(-c3cc(-c4cnn(C)c4)cn4ncc(C#N)c34)cn2)CC1 [Example 126] = -0.46
Cn1cc(-c2cc(-c3ccc(N4CCN(C(=O)CC5CCOC5)CC4)nc3)c3c(C#N)cnn3c2)cn1 (stereo not drawn) [Example 62] = 0.11
Cn1cc(-c2cc(-c3ccc(N4[C@@H]5CC[C@H]4C[C@H](NC(=O)OC(C)(C)C)C5)nc3)c3c(C#N)cnn3c2)cn1 [Example 192] = -0.03

Below: the item to evaluate.
Form: Entry = Cn1cc(-c2cc(-c3ccc(N4CCN(C(=O)CC(C)(C)C)CC4)cc3)c3c(C#N)cnn3c2)cn1 [Example 294] | System = human KDR protein in HEK-293 cells (Homo sapiens (Human)) | log10(IC50) = ____
0.32

* * *

Reported pIC50 is given for each of the following compounds.
# TARGET_OR_SYSTEM: N-terminal GST tagged recombinant human RET cytoplasmic domain (aa 658-end), wild type RET kinase (Homo sapiens (Human), UniProt P07949)
# TEST: RET Enzyme Assay (HTRF KinEASE-TK), wild type RET
# Type: biochemical
# CONDITION_LABEL: wild type RET, 1 mM ATP
Answer as the number alone; pIC50 is minus log10 of concentration in mol/L.

Please review the entries below; each comes with its answer.
CC(C)Cn1cc(-c2cc(-c3ccc(N4CCN(Cc5ccccc5)CC4)nc3)c3c(C#N)cnn3c2)cn1 [Example 612] = 7.42
Cn1cc(-c2cc(-c3ccc(N4CCC(O)CC4)nc3)c3c(C#N)cnn3c2)cn1 [Example 196] = 7.96

Below: the item to evaluate.
Data request, read-out pIC50, for Cn1cc(-c2cc(-c3ccc(N4CCN(CC(O)C(C)(C)C)CC4)nc3)c3c(C#N)cnn3c2)cn1 (stereo not drawn) [Example 148]
7.70
